# assay_summary: qHTS profiling for inhibitors of Plasmodium falciparum proliferation (AID 504749);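 note: 0% = DMSO vehicle and full inhibition = artemisinin control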
# experimental_context: P. falciparum in erythrocytes, SYBR Green DNA, 72 h; at 28.7 µM (top of the series); parasite line B
Inconclusive results are not listed.
reported_endpoint: activity, negative = inhibition (%)

INSERT INTO results (compound, uom, reading) VALUES
  ('C[C@]12Cc3nonc3C[C@@H]1CC[C@@H]1[C@@H]2CC[C@@]2(C)[C@H]1CC[C@]2(C)O', '%', -29.5),
  ('CN1C(=O)CN=C(c2ccccc2)c2cc([N+](=O)[O-])ccc21', '%', -3.67),
  ('CC(C)C(Br)C(=O)NC(N)=O (configuration not stated)', '%', 11.6),
  ('COC(=O)C1=CCCN(C)C1', '%', 19.4),
  ('C[C@]12CC[C@H]3[C@@H](CC=C4C[C@@H](O)CC[C@@]43C)[C@@H]1CC[C@@H]2O', '%', 6.49),
  ('C[C@]12C=CC(=O)C=C1CC[C@@H]1[C@@H]2CC[C@@]2(C)[C@H]1CC[C@]2(C)O', '%', 5.05),
  ('NC(=O)OCCCc1ccccc1', '%', 10.5),
  ('CNC(=O)Oc1cccc2ccccc12', '%', -8.17),
  ('C[N+](C)(C)CCOC(=O)C(O)(c1ccccc1)c1ccccc1', '%', 7.74),
  ('c1ccc2nc(N3CCNCC3)ccc2c1', '%', 9.33),
  ('CCN(Cc1ccc(Cl)nc1)/C(=C/[N+](=O)[O-])NC', '%', -9.95),
  ('CNC(=O)NC(O)C(Cl)(Cl)Cl (configuration not stated)', '%', 3.59);
